measurement-target: BRD9-GFP (Homo sapiens, UniProt Q9H8M2)
Construct: CHYSEL (2A cis-acting hydrolase element) remnant after GFP; mCherry is split off as a separate protein (C); expressed in transfected cells; host or cells: HEK293A cells (Invitrogen R70507), lentiviral transduction with pLenti6-BRD9-GFP-CHYSEL-mCherry, blasticidin selection
Sequence (Q9H8M2 whole entry): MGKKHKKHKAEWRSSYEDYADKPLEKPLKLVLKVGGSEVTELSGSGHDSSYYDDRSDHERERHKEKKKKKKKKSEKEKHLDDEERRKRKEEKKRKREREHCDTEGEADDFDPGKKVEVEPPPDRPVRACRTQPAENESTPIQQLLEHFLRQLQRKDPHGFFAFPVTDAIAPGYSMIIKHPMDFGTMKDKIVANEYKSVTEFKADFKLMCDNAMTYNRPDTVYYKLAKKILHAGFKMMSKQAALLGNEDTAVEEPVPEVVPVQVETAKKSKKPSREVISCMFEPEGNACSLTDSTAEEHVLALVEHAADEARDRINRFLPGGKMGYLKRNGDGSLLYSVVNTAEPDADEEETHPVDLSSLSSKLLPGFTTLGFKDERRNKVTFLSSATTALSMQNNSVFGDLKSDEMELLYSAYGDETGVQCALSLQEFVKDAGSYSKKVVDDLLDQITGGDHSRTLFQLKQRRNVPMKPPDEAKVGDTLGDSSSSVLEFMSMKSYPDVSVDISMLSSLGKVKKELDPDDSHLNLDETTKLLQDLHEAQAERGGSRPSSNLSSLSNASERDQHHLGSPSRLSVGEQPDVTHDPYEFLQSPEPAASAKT
experiment-notes: BRD9-GFP protein abundance flow cytometry assay in HEK293A cells
Format: cell-based
experimental-conditions: HEK293A-BRD9-GFP-CHYSEL-mCherry cells, 24 h; % protein remaining at the concentration at which maximum degradation is seen
measure: BRD9 Deg Amax % (%)

Worked cases, answers included:
compound | recorded-value
COc1cc(-c2cn(C)c(=O)c3cnccc23)cc(OC)c1CCN1CCC(OC2CCN(C(=O)COc3ccc(N4CCC(=O)NC4=O)cc3)CC2)CC1 | 18.22
CCCCn1cc(-c2cc(F)c(O[C@@H]3CCN(CC4CCN(C(=O)c5ccc(OC)c(N6CCC(=O)NC6=O)c5)CC4)C[C@H]3F)c(F)c2)c2ccncc2c1=O | 19.65
CCCn1cc(-c2ccc(CN3CC[C@@H](OC4CCN(C(=O)c5cccc(N6CCC(=O)NC6=O)c5)CC4)[C@H](F)C3)cc2)c(C)c(C)c1=O | 14.46

P: COc1cc(-c2cn(C)c(=O)c3cnccc23)cc(OC)c1CCN1CCC(OC2CCN(C(=O)c3ccc(Cl)c(N4CCC(=O)NC4=O)c3)CC2)CC1
Q: COc1cc(-c2cc(C)c(=O)n(C)c2)c(OC)cc1CN1CCC(OC2CCN(C(=O)c3cccc(N4CCC(=O)NC4=O)c3)CC2)CC1
Prompt line: Select one. Lower BRD9 Deg Amax %: P or Q Use the label to indicate which entry you chose.
Response line: Q
(Q: 6.37%, P: 15.53%)

###

measurement-target: BRD9-GFP (Homo sapiens, UniProt Q9H8M2)
Construct: CHYSEL (2A cis-acting hydrolase element) remnant after GFP; mCherry is split off as a separate protein (C); expressed in transfected cells; host or cells: HEK293A cells (Invitrogen R70507), lentiviral transduction with pLenti6-BRD9-GFP-CHYSEL-mCherry, blasticidin selection
experiment-notes: BRD9-GFP protein abundance flow cytometry assay in HEK293A cells
Assay type: cell-based
experimental-conditions: HEK293A-BRD9-GFP-CHYSEL-mCherry cells, 24 h at 37° C., 10-point 1:3 dilution; concentration at which 50% maximal degradation was observed
measure: DC50 (nM)

Sample answers from the record:
compound | DC50 (nM)
CCCCn1cc(-c2ccc(OC3CCN(CC4CCN(C(=O)c5ccc(Cl)c(N6CCC(=O)NC6=O)c5)CC4)CC3)c(OC)c2)c2ccncc2c1=O | 1
COc1cc(-c2cn(C)c(=O)c(C)c2C)ccc1CN1CCN(CC2CCN(C(=O)c3ccc(Cl)c(N4CCC(=O)NC4=O)c3)CC2)CC1 | 3
COc1ccc(C(=O)N2CCC(OC3CCN(Cc4c(OC)cc(-c5cn(C)c(=O)c6cnccc56)cc4OC)CC3)CC2)cc1N1CCC(=O)NC1=O | 98

I: COc1cc(-c2cc(C)c(=O)n(C)c2)c(OC)cc1CN1CCC(OC2CCN(C(=O)c3cccc(N4CCC(=O)NC4=O)c3)CC2)CC1
II: COc1cc(-c2cn(C)c(=O)c3cnccc23)ccc1OCC1CCN(CC2CCN(C(=O)c3ccc(OC)c(N4CCC(=O)NC4=O)c3)CC2)CC1
Prompt line: Select the item with the higher value of DC50 from the options I and II listed. When you have decided, please share the label of that item.
Response line: I
